Tested on: Vero E6 infected with SARS-CoV-2
Assay: inhibition of SARS-CoV-2 cytopathic effect; higher = more antiviral protection, active = above 15
Details: 833.33 nM; 48 h
ENDPOINT NAME: inhibition of SARS-CoV-2 cytopathic effect (%)
Answers are plain numbers, in %.

Use the examples below as a reference point.
CC[C@H](C)[C@@H]([C@@H](CC(=O)N1CCC[C@H]1[C@H](OC)[C@@H](C)C(=O)N[C@@H](Cc1ccccc1)c1nccs1)OC)N(C)C(=O)[C@@H](NC(=O)[C@H](C(C)C)N(C)C)C(C)C :: -3
Cc1ccc(S(=O)(=O)OCC(=O)Nc2ccc(C(=O)O)c(O)c2)cc1 :: -1.76

Report inhibition of SARS-CoV-2 cytopathic effect for every entry below.
1. CC(C)NNC(=O)c1ccncc1
2. CC/C(=C(/c1ccc(/C=C/C(=O)O)cc1)c1ccc2[nH]ncc2c1)c1ccc(F)cc1Cl
3. Brc1c(Br)c(Br)c2[nH]nnc2c1Br
4. Cc1c(NC(=O)OC[C@@H]2COCCN2)cn2ncnc(Nc3ccc4c(cnn4Cc4cccc(F)c4)c3)c12
5. Fc1ccc(CN2CCC(Nc3ccc(C(F)(F)F)nn3)CC2)cc1F
6. CCOC(=O)c1ccc(-c2ccc(OC(=O)N(C)Cc3cccc(-c4ccncc4)c3)cc2)cc1

Reply:
0.46
0.21
1.63
-8.47
1.38
4.52

----------
Task for the reader: assign each of the following compounds its reported SARS-CoV-2 infection rate.
Test system: Vero E6 infected with SARS-CoV-2
Assay: SARS-CoV-2 infection rate relative to infected DMSO; higher = more infection, active = 60 or less
Conditions: 24 h

Cc1cc2nc3c(=O)[nH]c(=O)nc-3n(C)c2cc1C=O (10 µM) :: 100% (inactive)

Okay, here is my list. What is SARS-CoV-2 infection rate for each of these?
1. O=C(O)P(=O)(O)O [foscarnet] (10 µM)
2. CCC(CC)C(c1ccc(Nc2nc3ccccc3s2)cc1)n1cncn1 (stereo not given) [talarozole] (10 µM)
3. CNCC(O)c1ccc(OC(=O)C(C)(C)C)c(OC(=O)C(C)(C)C)c1 (stereo not given) [dipivefrine] (10 µM)
4. NCC(O)c1ccc(O)cc1 (stereo not given) [octopamine] (10 µM)
5. N#Cc1ccc(COC[C@H]2O[C@@H](n3c(NCc4ccc(Cl)c(Cl)c4)nc4c(N)ncnc43)[C@H](O)[C@@H]2O)cc1 (10 µM)
6. Cc1nnc(-c2ccc3occ(-c4ccc([S+](C)[O-])cc4)c3c2)o1 (stereo not given) (10 µM)
7. CN1[C@@H]2CC[C@H]1C[C@@H](OC1c3ccccc3CCc3ccccc31)C2 [deptropine] (0.833333 µM)
8. CC(=O)Nc1ccc(O)cc1 [paracetamol] (10 µM)

Reply:
98% (inactive)
74.5% (inactive)
89.5% (inactive)
114% (inactive)
106% (inactive)
92.5% (inactive)
100% (inactive)
103% (inactive)

State the recorded SARS-CoV-2 infection rate for every item in the following list.
1. O=c1c(O)c(-c2cc(O)c(O)c(O)c2)oc2cc(O)cc(O)c12 [myricetin] (10 µM)
2. Cc1cc(C(=O)NOCCO)c(Nc2ccc(I)cc2F)n(C)c1=O (10 µM)
3. O=C(O)CCC(=O)C(=O)O [2-oxoglutaric-acid] (10 µM)
4. CC#CCn1c(N2CCC[C@@H](N)C2)nc2c1c(=O)n(Cc1nc(C)c3ccccc3n1)c(=O)n2C [linagliptin] (10 µM)
5. Nc1nc(Cl)nc2c1ncn2[C@@H]1O[C@H](CO)[C@@H](O)[C@@H]1F [clofarabine] (0.833333 µM)
6. CCCCC/C=C\C/C=C\CCCCCCCC(=O)NCCCC(=O)O [GABA-linoleamide] (10 µM)
7. CCn1nc(C2CCN(C(=O)CCO)CC2)nc1-c1cnc(N)c(-c2nnc(C(C)(C)C)o2)n1 (0.833333 µM)

Reply:
110% (inactive)
107% (inactive)
110% (inactive)
110% (inactive)
94.5% (inactive)
97.5% (inactive)
94% (inactive)

// batch mode: one SARS-CoV-2 infection rate value per listed entry
1. Nc1nc(NCCc2ccc(O)cc2)nc2nc(-c3ccco3)nn12 (10 µM)
2. N[C@@H](C(=O)O)c1ccc(C(=O)O)c(O)c1 (racemic) [4-carboxy-3-hydroxyphenylglycine-(RS)] (10 µM)
3. COc1ccc(-c2coc3cc(O)cc(O)c3c2=O)cc1 [4-methylgenistein] (10 µM)
4. O=C(Oc1cccc2cccnc12)c1ccccc1 [benzoxiquine] (10 µM)
5. CCc1oc2ccccc2c1C(=O)c1cc(Br)c(O)c(Br)c1 [benzbromarone] (10 µM)
6. NC(N)=Nc1nc(CSCCN/C=N/S(=O)(=O)c2ccc(Br)cc2)cs1 [ebrotidine] (10 µM)

Reply:
111% (inactive)
101% (inactive)
103% (inactive)
97% (inactive)
85.5% (inactive)
97% (inactive)
